Measured Jurkat-CD112R over-expressed (OE) gMFI (fold increase over isotype) values are reported for all entries that follow.
- Measured On: T1, human CD112R over-expressed on Jurkat cells (human, UniProt Q6DKI7 1-326)
- T1 construct: whole, on cells; also called Jurkat-CD112R OE; PVRIG
- T1 sequence (looked up): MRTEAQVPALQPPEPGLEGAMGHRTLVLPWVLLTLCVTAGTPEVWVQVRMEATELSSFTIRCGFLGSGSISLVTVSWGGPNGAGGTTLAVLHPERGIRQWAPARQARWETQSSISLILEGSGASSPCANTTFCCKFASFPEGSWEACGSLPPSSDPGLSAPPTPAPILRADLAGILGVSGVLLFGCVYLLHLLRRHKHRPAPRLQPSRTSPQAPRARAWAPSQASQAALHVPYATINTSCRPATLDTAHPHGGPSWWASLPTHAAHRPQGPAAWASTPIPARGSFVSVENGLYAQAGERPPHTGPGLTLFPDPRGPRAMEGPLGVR
- Method: flow cytometry on Jurkat cells over-expressing human CD112R, 0.63 ug/mL antibody
Return type: number; implicit unit fold.

Please review the following examples before continuing.
Antibody 2 (antibody, V domains shown, Tested as IgG detected with anti-human IgG Fc, compared with an IgG1 isotype control; also called antibody clone number 2; clone 2) VH: EVQLVESGGGLVKPGGSLRLSCAASGFTFSEYTMNWVRQAPGKGLEWVSAIVGSGDSTYYADSVKGRFTISRDNSKNTLYLQMNSLRAEDTAVYYCAKDYSSGDWIDYGMDVWGQGTTVTVSS VL: DIQMTQSPSSLSASVGDRVTITCQASQDISNYLNWYQQKPGKAPKLLIYDASNLATGVPSRFSGSGSGTDFTFTISSLQPEDIATYYCQQFDLLPPTFGGGTKVEIK = 63.9
Antibody 58 (antibody, V domains shown, Tested as IgG detected with anti-human IgG Fc, compared with an IgG1 isotype control; also called antibody clone number 58; clone 58) VH: EVQLVESGGGLVQPGRSLRLSCTASGFTFGDYAMSWFRQAPGKGLEWVGFIGSKFYGGETEYTASVKGRFTISRDGSKSIAYLQMNSLKTEDTAVYYCARGPRRYTYGMDVWGQGTTVTVSS VL: DIQMTQSPSSLSASVGDRVTITCRASQSISSYLNWYQQKPGKAPKLLIYAASSLQSGVPSRFSGSGSGTDFTLTISSLQPEDFATYYCQQSSTPLTFGGGTKVEIK = 37.3

API: the following record is the query input.
[in] For the binder shown here, Antibody 10 (antibody, V domains shown, Tested as IgG detected with anti-human IgG Fc, compared with an IgG1 isotype control; also called antibody clone number 10; clone 10) VH: EVQLVESGGGLVQPGRSLRLSCAASGFTFDDYAVHWVRQAPGKGLEWVSGISWSSGLIGYADSVKGRFTISRDNAKNSLYLQMNSLRAEDTAVYYCAKGPPTYQDYFDLWGRGTLVTVSS VL: EIVLTQSPATLSLSPGERATLSCRASQSVSRYLAWYQQKPGQAPRLLIYDASNRATGIPARFSGSGSGTDFTLTISSLEPEDFAVYYCQQVSFFPPITFGGGTKVEIK , give the reported Jurkat-CD112R over-expressed (OE) gMFI (fold increase over isotype).
[out] 55.7

Data origin, for the record: patent US20200040081A1
